Tested on: SK-OV-3
Assay: NCI tumour cell line growth inhibition, 48 h
Active and inactive are the calls of the source. Rule as the data show it: active = GI50 up to about 1.1 µM and inactive = higher.
Pick one and only one: active, inactive

Example entries begin here.
[
  {
    "COMPOUND": "C/C=C/C(O)P1(=O)N(Cc2ccccc2)[C@@H]2CCCC[C@H]2N1Cc1ccccc1 (some centres undefined)",
    "LABEL": "inactive"
  },
  {
    "COMPOUND": "C=CCC1C(=O)CC2(C)C(CC=C)C(=O)CC12C (centres undefined)",
    "LABEL": "inactive"
  },
  {
    "COMPOUND": "CC(=O)NC1C(OCc2ccccc2)OC(CO)C(O)C1OC(C)C(=O)NC(C(=O)NC(CCC(=O)Nc1ccc2c(c1)CN1C(=O)c3ccccc3C1=N2)C(N)=O)C(C)C (centres undefined)",
    "LABEL": "inactive"
  },
  {
    "COMPOUND": "CCN(CC)c1c(C(=O)/C=C/c2ccc(F)cc2)c(-c2ccccc2)nn(C)c1=O",
    "LABEL": "inactive"
  },
  {
    "COMPOUND": "NS(=O)(=O)c1nnc(NC(=O)N(c2ccccc2)c2ccccc2)s1",
    "LABEL": "inactive"
  },
  {
    "COMPOUND": "CCn1c2ccccc2c2ccc3c(c21)C(=O)C=CC3=O",
    "LABEL": "inactive"
  }
]

Record lookup: outcome of this test for O=C(O)/C=N/NC(=S)NC1CCCCC1 ? inactive

Hello, I am checking results. What call was entered for CC(=O)Nc1ccc2c3c(cc(O)c2c1)N(C(=O)CCCC(=O)N1CC(CCl)c2c1cc(O)c1cc(NC(C)=O)ccc21)CC3CCl (centres undefined) ? active

Per the records of this test, what outcome belongs to CCOC(=O)C1=C(C)N(c2ccc(Cl)cc2)C2(O)C=CC(O)=C3C(=O)c4ccccc4C(=O)C312 (centres undefined) ? inactive

----------
Collected GI50 values appear next to each entry.
Test system: MDA-N
Test: NCI tumour cell line growth inhibition, 48 h
Calls of active or inactive are those of the source. Rule as the data show it: active = GI50 up to about 1.1 µM and inactive = higher.

[
  {
    "MOLECULE": "COC(=O)[C@H](Cc1ccccc1)NC(=O)N(CCC#N)CCN(C(=O)N[C@@H](Cc1ccccc1)C(=O)OC)c1ccccc1",
    "VALUE": "17.5 µM (inactive)"
  },
  {
    "MOLECULE": "COC(=O)C1OC(O[C@H]2CC[C@]3(C)[C@H]4CC=C5[C@@H]6CC(C)(C)CC[C@]6(C(=O)OC)[C@H](O)C[C@@]5(C)[C@]4(C)CC[C@H]3C2(C)C)C(O)C(O)C1O (stereo partly specified)",
    "VALUE": "12.2 µM (inactive)"
  },
  {
    "MOLECULE": "Cc1cc(C)c2cc(N)c(Cl)nc2n1",
    "VALUE": "> 100 µM (inactive)"
  },
  {
    "MOLECULE": "O=[N+]([O-])C(=C(N1CCCCC1)N1CCCCC1)/C(Cl)=C(\\Cl)Br",
    "VALUE": "29.2 µM (inactive)"
  },
  {
    "MOLECULE": "COc1c(C(CC(C)C)OC(C)=O)ccc2c1C(=O)OCc1cc(C)cc(O)c1O2 (stereo unspecified)",
    "VALUE": "15.1 µM (inactive)"
  }
]

Please find the next molecule below.
For reference, reported GI50 for CCc1ccccc1NNc1cc(=O)[nH]c(=O)[nH]1 stands at 17.9 µM (inactive)

----------
Measured GI50 values are reported for all entries that follow.
Test system: RPMI-8226
Assay: NCI tumour cell line growth inhibition, 48 h
Calls of active or inactive are those of the source. Rule as the data show it: active = GI50 up to about 1.1 µM and inactive = higher.

[
  {
    "COMPOUND": "Clc1ccc(Cl)c(NNc2cc(Cl)ccc2Cl)c1",
    "TESTED_TARGET": "RPMI-8226",
    "ASSAY_METRIC": "GI50",
    "VALUE": "4.3 µM (inactive)"
  },
  {
    "COMPOUND": "CCn1c2ccccc2c2ccc3c(c21)C(=O)C=CC3=O",
    "TESTED_TARGET": "RPMI-8226",
    "ASSAY_METRIC": "GI50",
    "VALUE": "10.3 µM (inactive)"
  },
  {
    "COMPOUND": "CC(=O)Nc1ccc2c3c(cc(O)c2c1)N(C(=O)CCCC(=O)N1CC(CCl)c2c1cc(O)c1cc(NC(C)=O)ccc21)CC3CCl (stereo unspecified)",
    "TESTED_TARGET": "RPMI-8226",
    "ASSAY_METRIC": "GI50",
    "VALUE": "0.0109 µM (active)"
  },
  {
    "COMPOUND": "O=C1c2ccccc2C(=O)c2c(O)ccc(O)c21",
    "TESTED_TARGET": "RPMI-8226",
    "ASSAY_METRIC": "GI50",
    "VALUE": "91 µM (inactive)"
  },
  {
    "COMPOUND": "COC(=O)C1=C(C(=O)OC)C2(C(=O)OC)OC1(OC)C(C1(C(=O)OC)C(C(=O)OC)=C1C(=O)OC)=C2C(=O)OC (stereo unspecified)",
    "TESTED_TARGET": "RPMI-8226",
    "ASSAY_METRIC": "GI50",
    "VALUE": "> 100 µM (inactive)"
  },
  {
    "COMPOUND": "CCc1ccccc1NNc1cc(=O)[nH]c(=O)[nH]1",
    "TESTED_TARGET": "RPMI-8226",
    "ASSAY_METRIC": "GI50",
    "VALUE": "8.2 µM (inactive)"
  }
]

Form field GI50, entry C/C1=C\[C@H](C)C[C@H](C)OC(=O)C[C@H](c2ccc(O)cc2)NC(=O)[C@@H](Cc2c(Br)[nH]c3ccccc23)N(C)C(=O)[C@H](C)NC(=O)[C@@H](C)C1 [JASPAMIDE] : 0.218 µM (active)

The value of GI50 measured for the compound COC1=C(OC)C(=O)C(C/C=C/c2c(Cl)nc3sccn23)=C(C)C1=O turned out to be 4.35 µM (inactive)

// Cc1cn([C@@H]2C[C@H]2CO)c(=O)[nH]c1=O : GI50 value = > 100 µM (inactive)

----------
System: SR
Test: NCI tumour cell line growth inhibition, 48 h
Activity calls are given as the source filed them. Rule as the data show it: active = GI50 up to about 1.1 µM and inactive = higher.
Result category, one only: Y for active, N for inactive

Examples from the recorded data:
[
  {
    "COMPOUND": "CN1CSC(=S)N(c2c3ccccc3nc3ccc(Br)cc23)C1",
    "LABEL": "Y"
  },
  {
    "COMPOUND": "CC(=O)N/C(=C\\c1ccccc1/C=C(\\NC(C)=O)c1nc2cc(C)c(C)cc2[nH]1)c1nc2cc(C)c(C)cc2[nH]1",
    "LABEL": "Y"
  },
  {
    "COMPOUND": "CN(C)c1ccc(/C=N\\N2C(=O)c3ccccc3C2=O)cc1",
    "LABEL": "N"
  },
  {
    "COMPOUND": "C/C=C/C(O)P1(=O)N(Cc2ccccc2)[C@@H]2CCCC[C@H]2N1Cc1ccccc1 (some centres not stated)",
    "LABEL": "N"
  },
  {
    "COMPOUND": "O=[N+]([O-])c1ccc(C2SCc3nc4ccccc4n32)cc1 (configuration not stated)",
    "LABEL": "N"
  }
]

For CC1OC(=O)C(C(C)C)NC(=O)C(C(C)C)OC(=O)C(C(C)C)NC(=O)C(C)OC(=O)C(C(C)C)NC(=O)C(C(C)C)OC(=O)C(C(C)C)NC(=O)C(C)OC(=O)C(C(C)C)NC(=O)C(C(C)C)OC(=O)C(C(C)C)NC1=O (configuration not stated) , which call appears in the assay record? Y

Identify the outcome logged in this assay for the compound shown: CN1C(=O)C(C(N)=O)C2CC1(C)Oc1ccccc12 (configuration not stated) N

----------
System: HCT-15
ASSAY_METRIC: GI50

Examples from the recorded data:
[
  {
    "COMPOUND": "C=C(C)CNCCN",
    "GI50": "> 100 µM"
  },
  {
    "COMPOUND": "Cc1[nH]c(O)nc1C(=O)c1ccc(-n2ccnc2)cc1",
    "GI50": "> 100 µM"
  }
]

Shift focus to the following entry.
Documented GI50 of C=C1CC2CC[C@@]34C[C@@H]5O[C@@H]6C(O[C@H]7CC[C@H](CC(=O)OC8[C@@H](C)C9OC%10C[C@]%11(C[C@@H]%12O[C@@]%13(C[C@@H](C)[C@@H]%12O%11)C[C@H](C)[C@@H]%11OC%12CC(C(O)CO)OC%12C[C@@H]%11O%13)OC%10CC9O[C@H]8C[C@H]8O[C@@H](CC[C@@H]1O2)C[C@@H](C)C8=C)O[C@@H]7[C@@H]6O3)C5O4 (stereo partly drawn) : 0.000476 µM
